Source of measurements: PubChem BioAssay

Listed here: items and their measured composite z-score.
Assay: binders from COS7 lysate, DM2A8 probe, primary screen, torsin A project, cell lysate, small-molecule microarray, fluorescence 635/667 (AID 1065)
Conditions: higher = more signal, COS7 lysate expressing mutant human TOR1A
A bare number is all that is needed in reply.

# input State its composite z-score: COc1cc(CO)cc(I)c1O[C@H]1C=C(C(=O)NCCO)C[C@@H](N(C(=O)c2cc3ccccc3oc2=O)C2CCCCCC2)[C@@H]1O
# output 0.419

# input State its composite z-score: O=C1C2C=CC(C(O)c3cc(C(F)(F)F)cc(C(F)(F)F)c3)N(Nc3ccccc3)C2C(=O)N1c1ccccc1 (centres undefined)
# output 1.2

# input State its composite z-score: [N-]=[N+]=Nc1ccccc1C[C@]1(C(=O)NCC(O)CO)N=C(c2ccc(OCCCO)cc2)O[C@H]1c1ccccc1 (some centres undefined)
# output 0.533

# input State its composite z-score: C=CCC(OC(C)=O)[C@@H]1[C@@H](N(Cc2ccc(-c3cccc(C(F)(F)F)c3)o2)C(=O)c2cccc3ccccc23)c2cc(OCCCO)ccc2N1C(=O)Cc1ccc2ccccc2c1 (some centres undefined)
# output -0.261

====

Assay: compound effects on hepatocellular carcinoma cell viability – HepG2, calcein-AM fluorescence, 48 h, basal, profiling panel (AID 1164); note: test concentration not given here
Settings: higher = more signal
Readout: z-score
A bare number is all that is needed in reply.

Check out these entries, answers already filled in.
compound="CCCCCCCCCCC(O)C1C=CC2C(=O)NC(=O)C2N1Nc1ccc(Cl)cc1Cl (stereo not drawn)" recorded_measurement=-3.5
compound=COC(=O)[C@@]1(Cc2ccc(OC)cc2)[C@H]2c3cc(C(=O)N(C)C)n(Cc4ccc(C(F)(F)F)nc4)c3C[C@H]2CN1C(=O)c1ccccc1 recorded_measurement=0.106
compound=C=CC[C@@]1(C(=O)N2CCCCC2)N=C(c2ccc(OCCCO)cc2)O[C@@H]1c1ccccc1CN=[N+]=[N-] recorded_measurement=0.192
compound=COCCCNC(=O)[C@@]1(Sc2ccc(C)cc2)CC(=O)N(Cc2ccccc2Cl)[C@@H]1c1ccc(CO)cc1 recorded_measurement=-0.646
compound=O=C1O[C@@H](c2ccccc2)[C@@H](c2ccccc2)N2[C@@H](c3ccccc3OCCO)[C@]3(C(=O)Nc4ccc(C#CC5(O)CCCCCC5)cc43)[C@@H](C(=O)N3CCN(c4ncccn4)CC3)[C@H]12 recorded_measurement=0.11

# input State its z-score: COc1ccc([C@H]2C[C@H]3C(Br)=C[C@@]2(CO)C(=O)[C@]32CO2)cc1
# output -0.898

# input State its z-score: NCCCCCNC(=O)[C@H]1C[C@H]2C(=O)N[C@@H](Cc3ccccc3)C(=O)N2[C@H]1c1cccc(OCCO)c1
# output 1.19

# input State its z-score: [N-]=[N+]=NCc1ccccc1[C@@H]1OC(c2ccc(OCCCO)cc2)=N[C@]1(CCS(=O)(=O)c1ccccc1)C(N)=O
# output 0.834

# input State its z-score: CCOC(=O)C[C@H]1[C@H](OC(=O)c2ccc(-c3ccccc3)cc2)[C@@H](NC(=O)c2ccccc2)c2cc(OCCCO)ccc2N1C(=O)Cc1ccc(OC)cc1
# output 0.66

# input State its z-score: CO[C@H]1O[C@H](CO)[C@@H](OC(=O)Nc2ccccc2-c2ccccc2)[C@H](OC(=O)Nc2ccccc2-c2ccccc2)[C@@H]1OC(=O)Nc1ccccc1-c1ccccc1
# output -0.0639

# input State its z-score: CC[C@@H]1C=C(C(=O)O)[C@H](c2cccc3ccccc23)N1S(=O)(=O)c1ccc(C)cc1
# output 0.338

# input State its z-score: CCCC=C(CCC)[C@@H](NS(=O)(=O)c1ccc(Cl)cc1)c1ccc(C(=O)OC)cc1
# output -0.845

# input State its z-score: C=C(C(=O)CC[C@H](OC(C)=O)c1ccccc1OCCO)C(C)C
# output -3.04

# input State its z-score: COCCCNC(=O)[C@@H]1c2ccccc2C(=O)N(Cc2ccccc2)[C@H]1c1ccc(CO)cc1
# output 0.601

# input State its z-score: Cc1ccc(S[C@]2(C(=O)O)CC(=O)N(Cc3ccccc3C(F)(F)F)[C@@H]2c2ccc(CO)cc2I)cc1
# output -0.742

# input State its z-score: O=C(NC1CC1)[C@@H]1c2ccccc2C(=O)N(C2Cc3ccccc3C2)[C@H]1c1ccc(CO)cc1
# output 0.116

# input State its z-score: C=CCNC(=O)[C@H]1[C@@H]2C(=O)O[C@@H](c3ccccc3)[C@@H](c3ccccc3)N2[C@@H](c2ccc(OCCO)cc2)[C@]12C(=O)Nc1ccc(C#CCC(C(=O)OC)C(=O)OC)cc12
# output 0.349
